Measured Population Membrane Permeable-Phenotype (%), listed per entry for reference.
system: Fibroblast; assay: Multiplex assay against human fibroblast; type: toxicity, cell-based; details: 24 h, 10 µM, compound concentration 10 uM, replicate 1
Report as a plain number; the unit % is understood.

Worked examples, 2 compounds total:
CC(C)c1noc(N2CCC(COc3ccc(-c4ccc(S(C)(=O)=O)cc4)nc3)CC2)n1 | 23
COc1ccccc1CN[C@H]1C2CCN(CC2)[C@H]1C(c1ccccc1)c1ccccc1 | 3

"O=c1[nH]c2ccccc2n1C1CCN(Cc2ccc(-c3[nH]c4cc5ncnc5cc4nc3-c3ccccc3)cc2)CC1" yielded Population Membrane Permeable-Phenotype (%) of 20

"C[C@]12CC[C@@H]3c4ccc(O)cc4CC[C@H]3[C@@H]1CC[C@@H]2O" yielded Population Membrane Permeable-Phenotype (%) of 29
